This listing pairs compounds with measured Emax.
test system: primary human mesenchymal stem cells (hMSCs); test: Induction of chondrogenesis in hMSCs (nodule count); format: cell-based; settings: 6 days, relative to TGF-β3 (10 ng/mL) positive control, read-out: Max. Activity as % TGF-β3 activity

{"Compound": "c1cc2cc(-c3n[nH]c4ncc(-c5cncc(CN6CCCC6)c5)cc34)[nH]c2cn1 [Compound 266]", "Emax [%]": 36}
{"Compound": "Fc1cccc(-c2cncc3[nH]c(-c4n[nH]c5ncc(-c6cccnc6)cc45)cc23)c1 [Compound 4]", "Emax [%]": 36}
{"Compound": "CS(=O)(=O)NCc1cc(F)cc(-c2cncc3[nH]c(-c4n[nH]c5ncc(-c6cccnc6)cc45)cc23)c1 [Compound 480]", "Emax [%]": 66}
{"Compound": "Fc1cccc(-c2cncc3[nH]c(-c4n[nH]c5ncc(-c6cncc(CNCc7ccccc7)c6)cc45)cc23)c1 [Compound 24]", "Emax [%]": 65}
{"Compound": "CC(C)(C)CC(=O)Nc1cncc(-c2cnc3[nH]nc(-c4cc5c(-c6cccnc6)cncc5[nH]4)c3c2)c1 [Compound 100]", "Emax [%]": 37}
